# test: qHTS of TDP-43 Inhibitors; further: nearly all actives have a fitted effect of over 50% in size
# condition_parameters: TDP-43 expressing yeast growth rescue, BacTiter-Glo, 24 h; series mostly up to 46.1 µM
Out of some 410,000 compounds screened, about 7,200 (1.8%) were called active. Another 7% or so got no clear call; they are omitted. The call rests on the fitted dose curve; in most records, active means well fitted activation curve with a large enough effect; inconclusive means small, poorly fitted or top-dose-only effect, or another doubt; inactive means no such curve, though single readings can be large or run the other way. The sample holds actives, similar compounds and a random draw of the others, so the mix is not that of the screen.
Allowed answers: active, inactive

Use the examples below as a reference point.
IN: Hi team, can someone confirm the assay call for CCN(CC)c1ccc(NS(=O)(=O)c2cc(-c3cc(C)no3)ccc2C)c(C)c1 ?
OUT: inactive

IN: Test call, this molecule: Cc1cc([N+](=O)[O-])c(N2CCC[C@@H]2C(=O)O)c([N+](=O)[O-])c1
OUT: inactive

IN: How did this test come out for CC(C)(C)c1ccc(S(=O)(=O)N2CCN(C(=O)c3cc(-c4ccc(Br)cc4)n[nH]3)CC2)cc1 ?
OUT: inactive

IN: Per the assay record, what outcome was assigned to O=C1CC(c2cccc(Br)c2)C2=C(CCCC2=O)N1 (configuration not stated) ?
OUT: inactive

IN: Recorded call for COc1cccc2c1CCC(NC(C)=O)C2=O (configuration not stated) ?
OUT: inactive

Next:
IN: State the result this test recorded for Cc1ccccc1-n1c(SCC(=O)Nc2cccc3ccccc23)nc(O)cc1=O .
OUT: inactive

IN: Outcome? Cc1ccc2nc(SCC(=O)Nc3cccc4ccccc34)nc(=O)n2c1
OUT: inactive

IN: Returns: the outcome recorded for COc1ccc(C2CC(=O)NC(=O)C2)cc1 in this assay.
OUT: inactive

IN: Tell me the assay call for Cc1ccccc1-n1nc(SCC(=O)O)sc1=S please.
OUT: inactive
